- assay.method.text: chemical genetic growth profiling, strain panel (AID 1159580);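 also: tested at 20 µM; growth read once vehicle control cultures reached saturation at 30 °C; 1 = growth at the plate median or of vehicle wells; lower values mean less growth of the strain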
- reported.conditions: S. cerevisiae deletion strains, growth OD, locus YAL030W, strain snc1
Out of some 5,500 compounds screened, about 2,000 (36%) were called active. About 18% were inconclusive and are not listed. Rule as the data show it: active = normalized growth mostly below about 0.91 (no sharp cut-off); inconclusive = no clear call, values can overlap the other calls; inactive = mostly above about 0.92. The list shows a part of the results.
Tick one outcome: YES = active, NO = inactive

molecule: NCCS
cat: NO
//
molecule: C=C1CC2C(CCC3(C)C(=O)CCC23)C2(C)C=CC(=O)C=C12 (stereo not drawn)
cat: NO
//
molecule: CCCCC/C=C\C/C=C\C/C=C\C/C=C\CCCC(=O)O
cat: NO
//
molecule: COc1ccc2[nH]cc(CCNC(C)=O)c2c1
cat: NO
//
molecule: CCOc1ccc(Cc2nccc3cc(OCC)c(OCC)cc23)cc1OCC
cat: NO

Recorded test outcome, item Cn1nnnc1SCC1=C(C(=O)O)N2C(=O)C(NC(=O)C(OC=O)c3ccccc3)C2SC1 (stereo not drawn) NO

Would you mind telling me which call this test gave Cn1c(=O)[nH]c(=O)c2[nH]cnc21 ? NO

What classification did CN1CCN(C(c2ccccc2)c2ccccc2)CC1 end up with in this test? NO

Recorded test outcome, item O=C1c2ccccc2-c2cccc3cccc1c23 NO

State the result this test recorded for C[C@]12C=CC(=O)C=C1CCC1C2C(=O)C[C@@]2(C)C1CC[C@]2(O)C(=O)CO (stereo partly drawn) . NO

Could you kindly confirm the outcome this assay logged for Cn1cnc([N+](=O)[O-])c1Sc1ncnc2nc[nH]c12 ? NO

Recorded call for Cc1cc(O)c2c(c1O)C(=O)c1c(O)cc(C)c(O)c1C2=O ? NO

Called result for COc1ccc(Cc2nccc3cc(OC)c(OC)cc23)cc1OC NO

----------
- assay.method.text: chemical genetic growth profiling, strain panel (AID 1159580)
- reported.conditions: S. cerevisiae deletion strains, growth OD, locus YFR019W, strain FAB1
Among all 5,500 compounds or so, about 2,000 (36%) were called active. Roughly 18% stayed inconclusive and do not appear here. Cut-off read from the data, not from the text of the source: active = normalized growth mostly below about 0.91 (no sharp cut-off); inconclusive = no clear call, values can overlap the other calls; inactive = mostly above about 0.92. This is one part of the list.
Pick one and only one: active, inactive

As a guide, the following entries are already answered.
compound: Nc1ccc(N2CCN(c3ccc(C(F)(F)F)cn3)CC2)nc1
cat: inactive
--
compound: N#C/C(=C\c1ccc(C(F)(F)F)cc1)c1ccc(O)cc1
cat: active
--
compound: O=C(c1ccc(Cl)cc1)N1CCN(c2ccc(C(F)(F)F)cn2)CC1
cat: inactive

Could you check what this test reported for CCC1(c2ccccc2)OC(c2cc(Cl)cc(Cl)c2O)Nc2ccccc21 (configuration not stated) ? active

Please indicate how the test categorized N#C/C(=C\C=C\c1ccccc1)c1nc2ccccc2[nH]1 . inactive

Entry N#C/C(=N/Nc1ccc(C(F)(F)F)cc1)C(=O)C1CC1 : call = ? inactive

Hello, I am checking results. What call was entered for N/C(=N/OC(=O)c1ccccc1Cl)c1cccc(CS(=O)(=O)c2ccc(Cl)cc2)c1 ? inactive

----------
- assay.method.text: chemical genetic growth profiling, strain panel (AID 1159580)
- reported.conditions: S. cerevisiae deletion strains, growth OD, locus YDR069C, strain doa4, stronger effect = lower value
Among all 5,500 compounds or so, about 2,000 (36%) were called active. About 18% were inconclusive and are not listed. This is one part of the list.
readout.name: normalized growth
Output: the number by itself.

Study these solved cases before continuing.
smiles: N#Cc1ccc2c(c1)N(CCCN1CCC(O)CC1)c1ccccc1S2
readout.name: normalized growth
recorded.measurement: 0.995

smiles: CN1CCN(C(c2ccccc2)c2ccccc2)CC1
readout.name: normalized growth
recorded.measurement: 0.964

smiles: N#C/C(=C\c1ccc(O)cc1)C(=O)O
readout.name: normalized growth
recorded.measurement: 1

smiles: Cc1ncc([N+](=O)[O-])n1CCO
readout.name: normalized growth
recorded.measurement: 0.981

smiles: CCCCCN=C(N)N/N=C\c1c[nH]c2ccc(OC)cc12
readout.name: normalized growth
recorded.measurement: 1.02

Please give measured normalized growth of the following entry: O=c1cc(-c2ccc(O)cc2)oc2cc(O[C@@H]3O[C@H](CO)[C@@H](O)[C@H](O)[C@H]3O[C@@H]3OC[C@](O)(CO)[C@H]3O)cc(O)c12 1.01

----------
# normalized growth annotations
- assay.method.text: chemical genetic growth profiling, strain panel (AID 1159580)
- reported.conditions: S. cerevisiae deletion strains, growth OD, strain wtn01, stronger effect = lower value
Hit rate of the full screen: of about 5,500 compounds, about 2,000 (36%) were called active. About 18% were inconclusive and are not listed. The list shows a part of the results.

smiles: COc1cc2ccc(=O)oc2c(OC)c1OC
recorded.measurement: 1.02 (inactive)

Look up and report measured normalized growth for this entry: COC(=O)C1=CO[C@@H](O[C@@H]2O[C@H](CO)[C@@H](O)[C@H](O)[C@H]2O)[C@@H]2[C@@H](C)[C@@H](O)C[C@H]12 0.948 (inactive)

Indicate the recorded normalized growth value for this compound: COc1ccc2[nH]cc(CCNC(C)=O)c2c1 1.02 (inactive)

----------
- assay.method.text: chemical genetic growth profiling, strain panel (AID 1159580);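 also: tested at 20 µM; growth read once vehicle control cultures reached saturation at 30 °C; 1 = growth at the plate median or of vehicle wells; lower values mean less growth of the strain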
- reported.conditions: S. cerevisiae deletion strains, growth OD, locus YOR070C, strain gyp1, stronger effect = lower value
Hit rate of the full screen: of about 5,500 compounds, about 2,000 (36%) were called active. About 18% were inconclusive and are not listed. The list shows a part of the results.
Readings of normalized growth for the listed molecules
Please respond with just the number, no unit label.

Consider the reported normalized growth for these molecules:
molecule: CC1=C2CCC3C(CC[C@]4(C)C(=O)CCC34)[C@@]2(C)CCC1=O (stereo not given in full)
recorded.measurement: 0.959

molecule: O=C1c2ccc(O)c(O)c2C(=O)c2c(O)ccc(O)c21
recorded.measurement: 0.71

molecule: O=c1n(CCCN2CCN(c3cccc(Cl)c3)CC2)nc2ccccn12
recorded.measurement: 0.974

molecule: COC(=O)C1=CO[C@@H](O[C@@H]2O[C@H](CO)[C@@H](O)[C@H](O)[C@H]2O)[C@@H]2[C@@H](C)[C@@H](O)C[C@H]12
recorded.measurement: 0.999

molecule: O=c1cc(-c2ccc(O)cc2)oc2cc(O[C@@H]3O[C@H](CO)[C@@H](O)[C@H](O)[C@H]3O[C@@H]3OC[C@](O)(CO)[C@H]3O)cc(O)c12
recorded.measurement: 1

Let's switch to this molecule now.
Let me know recorded normalized growth for COc1cc2ccc(=O)oc2c2ccoc12 , thanks. 0.966

----------
Listed below: normalized growth values for each entry.
- assay.method.text: chemical genetic growth profiling, strain panel (AID 1159580);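 also: tested at 20 µM; growth read once vehicle control cultures reached saturation at 30 °C; 1 = growth at the plate median or of vehicle wells; lower values mean less growth of the strain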
- reported.conditions: S. cerevisiae deletion strains, growth OD, locus YGL173C, strain kem1, stronger effect = lower value
Screen size: about 5,500 compounds; about 2,000 (36%) were called active. Inconclusive results (about 18%) are left out. The list shows a part of the results.
// no unit string in output, number only

Worked cases, answers included:
compound: O=c1c(-c2ccc3c(c2)OCO3)coc2cc(O)ccc12
normalized growth: 0.995
--
compound: CCCCC(=O)O[C@H]1CCC2C3CCc4cc(O)ccc4C3CC[C@@]21C (some centres undefined)
normalized growth: 1.01
--
compound: COC(=O)C1=CO[C@@H](O[C@@H]2O[C@H](CO)[C@@H](O)[C@H](O)[C@H]2O)[C@@H]2[C@@H](C)[C@@H](O)C[C@H]12
normalized growth: 1.02

Please report the measured normalized growth for CC(=O)Oc1ccc2c(c1)CCC1C2CC[C@@]2(C)C1CC[C@@H]2OC(C)=O (some centres undefined) 0.987

----------
# Lookup of reported normalized growth keyed by entry
- assay.method.text: chemical genetic growth profiling, strain panel (AID 1159580);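 also: tested at 20 µM; growth read once vehicle control cultures reached saturation at 30 °C; 1 = growth at the plate median or of vehicle wells; lower values mean less growth of the strain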
- reported.conditions: S. cerevisiae deletion strains, growth OD, locus YDR363W, strain ESC2, stronger effect = lower value
Among all 5,500 compounds or so, about 2,000 (36%) were called active. Another 18% or so got no clear call; they are omitted. Some of the results follow.
// return a plain number; no unit text

compound: CC(C(=O)O)c1ccc(CC2CCCC2=O)cc1 (stereo not given)
normalized growth: 1
--
compound: Nn1nnc2ccccc21
normalized growth: 1
--
compound: C#CCN1C(C)=C(C(=O)OC)C(c2cccc([N+](=O)[O-])c2)C(C(=O)OCC)=C1C (stereo not given)
normalized growth: 1.01
--
compound: CN=C(N)NCCC[C@H](N)C(=O)O
normalized growth: 1.04
--
compound: O=C(O)CCC/C=C\C[C@@H]1[C@@H](/C=C/[C@H](O)C2Cc3ccccc3C2)[C@@H](F)C[C@@H]1O
normalized growth: 0.993
--
compound: O=C1OC(=O)C2C3CCC(O3)C12 (stereo not given)
normalized growth: 1.03
--
compound: Cn1cnc([N+](=O)[O-])c1Sc1ncnc2nc[nH]c12
normalized growth: 1.01
--
compound: CCCCCC(CC(=O)NO)C(=O)NC(C(=O)N1CCCC1CO)C(C)C (stereo not given)
normalized growth: 1.06
--
compound: COc1ccc2[nH]c(I)c(CCNC(C)=O)c2c1
normalized growth: 1.02
--
compound: CCCN(CCC)[C@@H]1CCc2c(F)ccc(O)c2C1
normalized growth: 1.01

Output measured normalized growth for this item: O=c1oc(Cl)c(Cl)c2ccccc12 1

Kindly indicate its recorded normalized growth. Item: C=CCN1CCC23c4c5ccc(O)c4O[C@H]2C(=O)CC[C@@]3(O)C1C5 (stereo not given in full) 1.01

Assign normalized growth to the following record: N[C@@]1(C(=O)O)CC[C@@H](C(=O)O)C1 1.04

Tell me measured normalized growth for CCOC(=O)C1=C(C)NC(C)=C(C(=O)OC)C1c1cccc([N+](=O)[O-])c1 (stereo not given) please. 1

Consider the compound NCCNC(=O)c1ncsc1-c1cccc(F)c1 and give its recorded normalized growth. 1.02
